Target Of Assay: HLA-B*53:01
Protocol: IEDB peptide-MHC binding, purified MHC/competitive/radioactivity; bounds were set here for any values at or beyond the usual limits of such assays
Condition Notes: source organism: Bordetella pertussis
List of IC50 values.
Measure: IC50 (µM)

[
  {
    "Input Sequence": "QAAPLSITL",
    "Measure": "IC50",
    "Quantitative Readout": 4.49
  },
  {
    "Input Sequence": "NPGSLIAEV",
    "Measure": "IC50",
    "Quantitative Readout": 58.7
  }
]

###

Target Of Assay: HLA-A*02:01
Protocol: IEDB peptide-MHC binding, purified MHC/competitive/radioactivity; bounds were set here for any values at or beyond the usual limits of such assays
Condition Notes: source organism: Bordetella pertussis

[
  {
    "Input Sequence": "FQTYALTGI",
    "Readout Units": "nM",
    "IC50": 1320
  }
]

###

Target Of Assay: HLA-B*44:03
Protocol: IEDB peptide-MHC binding, purified MHC/competitive/radioactivity; bounds were set here for any values at or beyond the usual limits of such assays
Condition Notes: source organism: Bordetella pertussis
Measure: IC50

[
  {
    "Input Sequence": "DGPPSRPTT",
    "Measure": "IC50",
    "Result": "≥ 70.1 µM"
  },
  {
    "Input Sequence": "YEAGFSLGS",
    "Measure": "IC50",
    "Result": "35.4 µM"
  }
]

###

Target Of Assay: HLA-B*57:01
Protocol: IEDB peptide-MHC binding, purified MHC/competitive/radioactivity; bounds were set here for any values at or beyond the usual limits of such assays
Condition Notes: source organism: Bordetella pertussis
pIC50: −log10 of the molar value.

[
  {
    "Input Sequence": "TSKQDERNY",
    "Rel": "≤",
    "pIC50": 4.15
  },
  {
    "Input Sequence": "RSRVRALAW",
    "Rel": "=",
    "pIC50": 7.92
  },
  {
    "Input Sequence": "VGGGEHGRW",
    "Rel": "=",
    "pIC50": 4.24
  }
]

###

Target Of Assay: HLA-B*07:02
Protocol: IEDB peptide-MHC binding, purified MHC/competitive/radioactivity; bounds were set here for any values at or beyond the usual limits of such assays
Condition Notes: source organism: Bordetella pertussis
pIC50: −log10 of the molar value.
Measure: pIC50

[
  {
    "Input Sequence": "LPSIPGTSI",
    "Rel": "=",
    "Quantitative Readout": 6.94
  },
  {
    "Input Sequence": "TAFMSGRSL",
    "Rel": "=",
    "Quantitative Readout": 4.25
  },
  {
    "Input Sequence": "PAVALPRPL",
    "Rel": "≤",
    "Quantitative Readout": 4.11
  }
]
